The values you see were collected from ChEMBL document CHEMBL4480400.

# system.name: Sodium- and chloride-dependent glycine transporter 2 (Homo sapiens)
# protocol.details: Inhibition of recombinant human GlyT2a expressed in Xenopus laevis oocytes assessed as reduction in channel current by two-electrode voltage clamp electrophysiology relative to control
# Format: cell-based
Binning rule for recorded Imax: bin 1 = under 70%, bin 2 = from 70% up to 80%, bin 3 = 80% and over

For "CCCCCCCC/C=C\CCCCCCCC(=O)N[C@H](CCCCN)C(=O)O.Cl" , which Imax bin applies?
bin 3

For "CCCCCCCC/C=C\CCCCCCCC(=O)N[C@@H](CO)C(=O)O" , which Imax bin applies?
bin 2

For "CCCCCCCC/C=C\CCCCCCCC(=O)N[C@@H](CCCC)C(=O)O" , which Imax bin applies?
bin 1

For "CCCCCCCC/C=C\CCCCCCCC(=O)N[C@@H](CC(=O)O)C(=O)O" , which Imax bin applies?
bin 2

For "CCCCCCCC/C=C\CCCCCCCC(=O)N[C@@H](CCCCN)C(=O)O.Cl" , which Imax bin applies?
bin 3

For "CCCCCCCC/C=C\CCCCCCCC(=O)N[C@H](C(=O)O)C(C)C" , which Imax bin applies?
bin 3

For "CCCCCCCC/C=C\CCCCCCCC(=O)N[C@@H](CC(C)C)C(=O)O" , which Imax bin applies?
bin 2

For "CCCCCCCC/C=C\CCCCCCCC(=O)N[C@@H](C(=O)O)C(C)C" , which Imax bin applies?
bin 1

----------
# protocol.details: Ratio of drug uptake in Sprague-Dawley rat brain to plasma at 27.5 mg/kg, ip after 1 hr by UPLC analysis
# Type: ADME, organism-based
# assay.conditions: read-out: BPR
property: Kp at 1 h
Form rule: numeric answer, no unit written next to it.

According to the records, this compound "CCCCCCCC/C=C\CCCCCCCC(=O)N[C@H](CCCCN)C(=O)O.Cl" displays Kp at 1 h of 0.08

----------
# protocol.details: Drug degradation in rat liver microsomes at 1 uM measured over 60 mins by LC-MS/MS analysis
# Type: ADME, Microsome
# assay.conditions: read-out: Drug degradation
property: metabolised at 1 h, 1 µM

According to the records, this compound "CCCCCCCC/C=C\CCCCCCCC(=O)N[C@H](CCCCN)C(=O)O.Cl" displays metabolised at 1 h, 1 µM of < 15%

----------
# protocol.details: Drug degradation in rat plasma at 1000 ng/ml measured over 240 mins by LC-MS/MS analysis
# Assay type: ADME, cell-free
# assay.conditions: read-out: Drug degradation
property: metabolised at 4 h, 1000 ng/ml

According to the records, this compound "CCCCCCCC/C=C\CCCCCCCC(=O)N[C@H](CCCCN)C(=O)O.Cl" displays metabolised at 4 h, 1000 ng/ml of < 15%

----------
# protocol.details: Tmax in Sprague-Dawley rat plasma at 27.5 mg/kg, ip by UPLC analysis
# Assay type: ADME, organism-based
property: Tmax
Please state the value followed by its unit.

According to the records, this compound "CCCCCCCC/C=C\CCCCCCCC(=O)N[C@H](CCCCN)C(=O)O.Cl" displays Tmax of 1 h

----------
# system.name: Sodium- and chloride-dependent glycine transporter 1 (Homo sapiens, UniProt P48067)
# Sequence (P48067 whole entry): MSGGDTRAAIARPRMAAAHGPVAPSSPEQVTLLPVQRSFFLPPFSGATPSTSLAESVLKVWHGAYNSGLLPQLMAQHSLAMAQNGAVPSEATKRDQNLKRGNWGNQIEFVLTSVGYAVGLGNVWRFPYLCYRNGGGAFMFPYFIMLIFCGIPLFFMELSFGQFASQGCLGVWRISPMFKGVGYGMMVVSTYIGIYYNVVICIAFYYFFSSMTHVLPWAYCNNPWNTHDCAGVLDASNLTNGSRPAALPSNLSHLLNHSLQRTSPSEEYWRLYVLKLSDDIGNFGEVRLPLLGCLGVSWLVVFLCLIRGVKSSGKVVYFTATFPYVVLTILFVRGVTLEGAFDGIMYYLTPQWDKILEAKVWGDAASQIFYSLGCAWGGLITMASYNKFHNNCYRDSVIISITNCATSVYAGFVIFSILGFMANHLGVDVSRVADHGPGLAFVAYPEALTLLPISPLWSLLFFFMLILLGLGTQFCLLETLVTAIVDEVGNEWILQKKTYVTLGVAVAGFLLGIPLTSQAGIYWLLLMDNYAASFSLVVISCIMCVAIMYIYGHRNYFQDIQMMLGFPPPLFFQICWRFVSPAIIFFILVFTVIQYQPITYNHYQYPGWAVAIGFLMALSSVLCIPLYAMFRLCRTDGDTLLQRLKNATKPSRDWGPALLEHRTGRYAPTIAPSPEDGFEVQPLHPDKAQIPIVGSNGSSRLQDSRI
# protocol.details: Inhibition of recombinant human GlyT1b expressed in Xenopus laevis oocytes assessed as reduction in channel current by two-electrode voltage clamp electrophysiology
property: IC50

According to the records, this compound "CCCCCCCC/C=C\CCCCCCCC(=O)N[C@@H](CCCCN)C(=O)OC" displays IC50 of > 3 µM

According to the records, this compound "CCCCCCCC/C=C\CCCCCCCC(=O)N[C@@H](Cc1c[nH]c2ccccc12)C(=O)O" displays IC50 of > 10 µM

According to the records, this compound "CCCCCCCC/C=C\CCCCCCCC(=O)N[C@@H](Cc1ccccc1)C(=O)O" displays IC50 of > 10 µM

According to the records, this compound "CCCCCCCC/C=C\CCCCCCCC(=O)N[C@H](CCSC)C(=O)O" displays IC50 of > 3 µM

According to the records, this compound "CCCCCCCC/C=C\CCCCCCCC(=O)N[C@H](C(=O)O)C(C)C" displays IC50 of > 30 µM

According to the records, this compound "CCCCCCCC/C=C\CCCCCCCC(=O)N[C@H](CCCCN)C(=O)O.Cl" displays IC50 of > 3 µM

According to the records, this compound "CCCCCCCC/C=C\CCCCCCCC(=O)N[C@@H](C)C(=O)O" displays IC50 of > 30 µM

According to the records, this compound "CCCCCCCC/C=C\CCCCCCCC(=O)N[C@H](C)C(=O)O" displays IC50 of > 30 µM

According to the records, this compound "CCCCCCCC/C=C\CCCCCCCC(=O)N[C@@H](CC(C)C)C(=O)O" displays IC50 of > 10 µM

According to the records, this compound "CCCCCCCC/C=C\CCCCCCCC(=O)N[C@@H](CCC(=O)O)C(=O)O" displays IC50 of > 10 µM

According to the records, this compound "CCCCCCCC/C=C\CCCCCCCC(=O)N[C@H](Cc1c[nH]c2ccccc12)C(=O)O" displays IC50 of > 10 µM

According to the records, this compound "CCCCCCCC/C=C\CCCCCCCC(=O)N[C@@H](CC(=O)O)C(=O)O" displays IC50 of > 10 µM

According to the records, this compound "CCCCCCCC/C=C\CCCCCCCC(=O)N[C@@H](CCSC)C(=O)O" displays IC50 of > 3 µM

According to the records, this compound "CCCCCCCC/C=C\CCCCCCCC(=O)N[C@H](CC(C)C)C(=O)O" displays IC50 of > 30 µM

----------
# system.name: Sodium- and chloride-dependent glycine transporter 2 (Homo sapiens)
# protocol.details: Inhibition of recombinant human GlyT2a expressed in Xenopus laevis oocytes assessed as reduction in channel current by two-electrode voltage clamp electrophysiology relative to control
# Format: cell-based
hey, just use class 1 if measured Imax is less than 70%, otherwise class 0

Check if Imax falls below 70% for "CCCCCCCC/C=C\CCCCCCCC(=O)N[C@H](CC(=O)O)C(=O)O" .
class 0

Check if Imax falls below 70% for "CCCCCCCC/C=C\CCCCCCCC(=O)NCC(=O)O" .
class 1

Check if Imax falls below 70% for "CCCCCCCC/C=C\CCCCCCCC(=O)N[C@@H](Cc1cnc[nH]1)C(=O)O" .
class 0

Check if Imax falls below 70% for "CCCCCCCC/C=C\CCCCCCCC(=O)N[C@H](Cc1c[nH]c2ccccc12)C(=O)O" .
class 1

Check if Imax falls below 70% for "CCCCCCCC/C=C\CCCCCCCC(=O)N[C@@H](CCC(=O)O)C(=O)O" .
class 0

Check if Imax falls below 70% for "COc1cc(C(=O)NCC2(N(C)C)CCCC2)cc(OC)c1OCc1ccccc1" .
class 0

Check if Imax falls below 70% for "CCCCCCCC/C=C\CCCCCCCC(=O)N[C@H](CCc1ccccc1)C(=O)O" .
class 1

Check if Imax falls below 70% for "CCCCCCCC/C=C\CCCCCCCC(=O)N[C@@H](CCCN)C(=O)O" .
class 0

Check if Imax falls below 70% for "CCCCCCCC/C=C\CCCCCCCC(=O)N[C@H](Cc1ccccc1)C(=O)O" .
class 1

Check if Imax falls below 70% for "CCCCCCCC/C=C\CCCCCCCC(=O)N[C@H](CO)C(=O)O" .
class 0

Check if Imax falls below 70% for "CCCCCCCC/C=C\CCCCCCCC(=O)N[C@H](CC(C)C)C(=O)O" .
class 1

Check if Imax falls below 70% for "CCCCCCCC/C=C\CCCCCCCC(=O)N[C@H](CCC(=O)O)C(=O)O" .
class 0

Check if Imax falls below 70% for "CCCCCCCC/C=C\CCCCCCCC(=O)N[C@@H](CCSC)C(=O)O" .
class 0

Check if Imax falls below 70% for "CCCCCCCC/C=C\CCCCCCCC(=O)N[C@@H](CCN)C(=O)O" .
class 0

Check if Imax falls below 70% for "CCCCCCCC/C=C\CCCCCCCC(=O)N[C@@H](CC(N)=O)C(=O)O" .
class 0

Check if Imax falls below 70% for "CCCCCCCC/C=C\CCCCCCCC(=O)N[C@@H](CCc1ccccc1)C(=O)O" .
class 0

Check if Imax falls below 70% for "CCCCCCCC/C=C\CCCCCCCC(=O)NCCCCCN" .
class 0

Check if Imax falls below 70% for "CCCCCCCC/C=C\CCCCCCCC(=O)N[C@@H](C)C(=O)O" .
class 0

Check if Imax falls below 70% for "CCCCCCCC/C=C\CCCCCCCC(=O)N[C@@H](CCCNC(=N)N)C(=O)O" .
class 0

Check if Imax falls below 70% for "CCCCCCCC/C=C\CCCCCCCC(=O)N[C@H](Cc1cnc[nH]1)C(=O)O" .
class 0

Check if Imax falls below 70% for "CCCCCCCC/C=C\CCCCCCCC(=O)N[C@@H](Cc1ccccc1)C(=O)O" .
class 1

Check if Imax falls below 70% for "CCCCCCCC/C=C\CCCCCCCC(=O)N[C@@H](CN)C(=O)O" .
class 1

Check if Imax falls below 70% for "CCCCCCCC/C=C\CCCCCCCC(=O)N[C@@H](Cc1c[nH]c2ccccc12)C(=O)O" .
class 0

Check if Imax falls below 70% for "CCCCCCCC/C=C\CCCCCCCC(=O)N[C@@H](CCCCN)C(=O)OC" .
class 0
